# SGOT Increase - Number of Reports per entry
test system: Hepatotoxicity; assay: FDA HLAED, serum glutamic oxaloacetic transaminase (SGOT) increase; details: human

[
  {
    "COMPOUND": "CC(C)(C(=O)O)c1ccc(C(O)CCCN2CCC(C(O)(c3ccccc3)c3ccccc3)CC2)cc1 (stereo not drawn) [FEXOFENADINE]",
    "SGOT Increase - Number of Reports": "< 4"
  },
  {
    "COMPOUND": "O=C1c2c(O)ccc(O)c2C(=O)c2c(NCCNCCO)ccc(NCCNCCO)c21",
    "SGOT Increase - Number of Reports": "< 4"
  },
  {
    "COMPOUND": "CCC(=O)OCC(=O)[C@@]1(OC(=O)CC)[C@H](C)C[C@H]2[C@H]3[C@H]([C@@H](O)C[C@@]21C)[C@@]1(C)C=CC(=O)C=C1C[C@H]3Cl [ALCLOMETASONE DIPROPIONATE]",
    "SGOT Increase - Number of Reports": "< 4"
  }
]
